Molecular target: TF on the surface of tumor cells (MDA-MB-231, HPAF-II, HCC1806, BxPC3, HCC44, PC9, H1975 and other … (UniProt P13726 33-295, limits assumed))
Experiment: cell-based or functional assay
experimental-endpoint: Cell proliferation inhibition IC50, BxPC3 cells (MTS) (ng/mL)

- binder: "4-A02-FC1-MMAE (4-A02-FC1 coupled to mc-vc-MMAE) (Fc fusion, mc-vc-MMAE coupled to cysteine thiols after TCEP reduction; target DAR 4 for the dimer (about 95% DAR4 by HIC); positions not given) QVQLVESGGGLVQPGGSLSLSCTASETISSTYIMGWHRRSPGKERELVAVISGDGVTHYADFVKGRFVISRDNAKNAVYLKMNFLTPEDTAVYYCYAAGRWNHWGQGTQVTVSSEPKSSDKTHTCPPCPAPEFEGGPSVFLFPPKPKDTLMISRTPEVTCVVVDVSHEDPEVKFNWYVDGVEVHNAKTKPREEQYNSTYRVVSVLTVLHQDWLNGKEYKCKVSNKALPASIEKTISKAKGQPREPQVYTLPPSRDELTKNQVSLTCLVKGFYPSDIAVEWESNGQPENNYKTTPPVLDSDGSFFLYSKLTVDKSRWQQGNVFSCSVMHEALHNHYTQKSLSLSPGK"
  unit-string: "ng/mL"
  measured: 0.1
